Where these numbers come from: patent US8889704B2

- SUBJECT OF TEST: GST-tagged recombinant full-length human Pim-2 (Homo sapiens, UniProt Q9P1W9)
- Construct: GST-tagged recombinant full-length human Pim-2; GST
- Sequence (Q9P1W9 whole entry): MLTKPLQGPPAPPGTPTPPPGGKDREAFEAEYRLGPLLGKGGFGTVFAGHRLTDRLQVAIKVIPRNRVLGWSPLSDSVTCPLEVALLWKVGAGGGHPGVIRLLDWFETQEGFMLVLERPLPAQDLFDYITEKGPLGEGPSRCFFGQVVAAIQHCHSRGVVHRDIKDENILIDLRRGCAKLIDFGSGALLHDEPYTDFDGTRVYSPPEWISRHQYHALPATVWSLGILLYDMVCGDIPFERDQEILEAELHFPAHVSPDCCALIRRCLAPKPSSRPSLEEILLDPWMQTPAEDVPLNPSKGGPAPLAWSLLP
- ASSAY PROCEDURE: PIM-2 Assay (as Example A)
- MEASUREMENT CONDITIONS: averaged IC50; 4 μM ATP, 1.0 μM PIM2tide, 1.5 nM Pim-2
Counter-ions that a name gives are not always drawn.
RECORDED METRIC: IC50 (nM)

[a] N[C@H]1CCN([C@H](c2ccc3nnc(-c4ccc5cc(F)cc(C6(CO)CC6)c5n4)n3c2)C(F)(F)F)C1 [Example 125, dihydrochloride]
[b] CO[C@H](C)COc1cc2nc(-c3nnc4ccc([C@@H](N5CC[C@H](N)C5)C(F)(F)F)cn34)ccc2cc1F [Example 325, di-hydrochloride]
Hi, I'm comparing two records. Which one has the lower IC50, a or b ? Use the label to indicate which entry you chose.
a
(a: 6.2 nM, b: 102 nM)
